Numbers sourced from PubChem BioAssay (EPA / NIEHS).

# Read-out: Fatty acid synthase (Homo sapiens) (UniProt P49327)
# Sequence (P49327 whole entry, looked up): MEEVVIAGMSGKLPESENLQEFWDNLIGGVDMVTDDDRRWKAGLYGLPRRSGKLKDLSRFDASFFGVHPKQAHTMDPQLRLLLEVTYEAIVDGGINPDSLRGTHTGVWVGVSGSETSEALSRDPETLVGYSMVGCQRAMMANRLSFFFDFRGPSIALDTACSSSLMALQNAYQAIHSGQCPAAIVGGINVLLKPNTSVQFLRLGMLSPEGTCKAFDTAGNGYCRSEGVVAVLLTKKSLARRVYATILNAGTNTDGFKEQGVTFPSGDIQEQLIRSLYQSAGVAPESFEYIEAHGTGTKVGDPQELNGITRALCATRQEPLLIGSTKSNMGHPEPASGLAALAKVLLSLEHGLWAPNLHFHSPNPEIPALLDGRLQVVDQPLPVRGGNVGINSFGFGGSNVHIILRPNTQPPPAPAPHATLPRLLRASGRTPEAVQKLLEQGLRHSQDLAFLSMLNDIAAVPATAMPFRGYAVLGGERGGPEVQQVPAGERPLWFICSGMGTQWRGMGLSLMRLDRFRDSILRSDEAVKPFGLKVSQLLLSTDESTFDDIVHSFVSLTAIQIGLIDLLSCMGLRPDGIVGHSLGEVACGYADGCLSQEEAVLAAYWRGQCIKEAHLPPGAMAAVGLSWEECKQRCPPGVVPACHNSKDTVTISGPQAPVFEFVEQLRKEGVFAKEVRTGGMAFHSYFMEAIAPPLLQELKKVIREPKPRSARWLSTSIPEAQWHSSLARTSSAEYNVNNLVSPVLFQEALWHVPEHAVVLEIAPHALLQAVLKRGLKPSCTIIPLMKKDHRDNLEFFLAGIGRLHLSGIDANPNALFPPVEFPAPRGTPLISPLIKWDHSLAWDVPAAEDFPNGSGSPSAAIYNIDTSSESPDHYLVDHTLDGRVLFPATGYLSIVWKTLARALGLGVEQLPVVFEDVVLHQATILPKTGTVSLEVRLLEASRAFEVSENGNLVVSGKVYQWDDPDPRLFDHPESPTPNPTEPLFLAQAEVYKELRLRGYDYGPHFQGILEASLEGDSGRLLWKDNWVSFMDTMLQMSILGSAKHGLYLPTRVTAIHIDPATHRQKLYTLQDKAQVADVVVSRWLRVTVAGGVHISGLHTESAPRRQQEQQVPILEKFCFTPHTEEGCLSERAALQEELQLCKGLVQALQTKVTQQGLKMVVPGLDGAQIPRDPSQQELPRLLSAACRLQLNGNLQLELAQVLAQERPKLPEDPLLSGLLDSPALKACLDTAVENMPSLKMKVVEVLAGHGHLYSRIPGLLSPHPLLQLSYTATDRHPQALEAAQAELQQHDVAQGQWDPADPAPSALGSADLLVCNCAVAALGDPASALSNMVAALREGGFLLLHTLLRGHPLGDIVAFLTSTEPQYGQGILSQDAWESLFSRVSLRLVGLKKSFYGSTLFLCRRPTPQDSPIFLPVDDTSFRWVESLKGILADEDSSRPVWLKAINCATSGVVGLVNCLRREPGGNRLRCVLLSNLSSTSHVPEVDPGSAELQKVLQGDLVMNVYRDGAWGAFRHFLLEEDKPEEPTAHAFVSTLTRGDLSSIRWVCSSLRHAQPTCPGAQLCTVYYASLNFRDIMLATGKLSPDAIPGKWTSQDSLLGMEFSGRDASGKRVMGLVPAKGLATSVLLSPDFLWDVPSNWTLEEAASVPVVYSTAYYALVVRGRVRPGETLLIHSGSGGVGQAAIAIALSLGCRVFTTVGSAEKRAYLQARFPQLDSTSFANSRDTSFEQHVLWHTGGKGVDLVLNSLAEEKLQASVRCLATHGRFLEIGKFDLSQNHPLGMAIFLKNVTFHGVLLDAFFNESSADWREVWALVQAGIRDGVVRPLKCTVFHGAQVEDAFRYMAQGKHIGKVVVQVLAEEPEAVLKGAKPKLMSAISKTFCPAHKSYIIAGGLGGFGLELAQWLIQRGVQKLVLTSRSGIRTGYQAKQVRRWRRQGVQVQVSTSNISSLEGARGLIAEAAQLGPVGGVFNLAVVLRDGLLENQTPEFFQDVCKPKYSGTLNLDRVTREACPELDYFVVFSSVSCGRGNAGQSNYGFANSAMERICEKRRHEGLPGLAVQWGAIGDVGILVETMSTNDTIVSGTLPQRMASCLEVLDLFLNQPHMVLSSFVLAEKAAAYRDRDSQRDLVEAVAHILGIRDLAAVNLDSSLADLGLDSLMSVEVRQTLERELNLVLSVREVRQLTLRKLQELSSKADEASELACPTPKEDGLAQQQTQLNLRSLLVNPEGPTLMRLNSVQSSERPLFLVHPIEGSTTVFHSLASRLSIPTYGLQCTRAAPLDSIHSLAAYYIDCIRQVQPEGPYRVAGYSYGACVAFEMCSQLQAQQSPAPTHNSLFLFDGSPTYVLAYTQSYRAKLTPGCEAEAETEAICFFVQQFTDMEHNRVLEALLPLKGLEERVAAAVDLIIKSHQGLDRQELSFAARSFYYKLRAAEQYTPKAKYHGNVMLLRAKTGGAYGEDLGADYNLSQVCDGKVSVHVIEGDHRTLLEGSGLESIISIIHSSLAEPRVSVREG
# ASSAY PROCEDURE: LTEA_HepaRG_FASN: Life Technologies and Expression Analysis (LTEA) Assay for Fatty Acid Synthase (FASN) using HepaRG (AID 2283448)
# SETUP CONDITIONS: mRNA level, 48 h; actives raise or lower the signal
Activity calls are given as the source filed them. How the source made its calls: active means hit-call score of the fitted dose curve at least 0.9, where 1 is the maximum; inactive means score below 0.9.
Pick one and only one: 1 for active, -1 for inactive

1) CCCOC(=O)NCCCN(C)C    -1

// outcome(item) with item = `S=C([S-])NCCNC(=S)[S-].[Mn+2]`
1

Could you check what this test reported for `OB(O)O` ?
-1

State the result this test recorded for `CC(C)CCCCCCc1ccc(O)cc1` .
-1

Check the results log: what was the call for `CCCCOCCOCCOCc1cc2c(cc1CCC)OCO2` ?
-1

So what was the verdict on `CCCCCOC(=O)COc1cc(N2C(=O)C3=C(CCCC3)C2=O)c(F)cc1Cl` in this test?
-1

Record lookup: outcome of this test for C=CCOC(Cn1ccnc1)c1ccc(Cl)cc1Cl (stereo not drawn) ?
1

Tell me the assay call for `O=C(c1ccccc1)C1CCCCC1` please.
-1
